- target-under-test: Histamine H3 receptor (Rattus norvegicus)
- Construct: The cerebral cortical tissues were harvested and frozen on dry ice; from tissue; host or cells: cerebral cortex membranes of male Sprague-Dawley rats
- Sequence (Q9QYN8 whole entry): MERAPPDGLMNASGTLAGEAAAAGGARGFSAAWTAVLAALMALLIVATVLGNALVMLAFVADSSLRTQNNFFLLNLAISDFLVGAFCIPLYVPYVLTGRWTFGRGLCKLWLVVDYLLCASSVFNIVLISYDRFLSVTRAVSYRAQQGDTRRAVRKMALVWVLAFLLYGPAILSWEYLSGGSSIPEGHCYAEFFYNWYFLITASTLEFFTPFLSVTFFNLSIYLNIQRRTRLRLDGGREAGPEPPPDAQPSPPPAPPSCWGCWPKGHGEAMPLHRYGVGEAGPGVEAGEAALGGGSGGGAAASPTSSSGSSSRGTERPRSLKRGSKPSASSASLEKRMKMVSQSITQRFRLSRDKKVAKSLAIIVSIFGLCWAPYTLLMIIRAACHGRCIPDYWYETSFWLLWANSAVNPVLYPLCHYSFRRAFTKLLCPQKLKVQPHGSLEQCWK
- experiment-description: Histamine H3 receptor binding analysis, [3H]-Nα-methylhistamine competition in rat cerebral cortical membranes, with and without GTPγS
- conditions-used: untreated receptor preparation (mixture of coupled and uncoupled H3 receptors); read-out: Ki (−) GTPγS
measurement-type: log10(Ki) (log10 of the value in nM)
// stored as log10 of Ki expressed in nM

Prompt: So what log10(Ki) did CC(C)(C)CCC#C[C@@H]1C[C@H]1c1c[nH]cn1 [Compound 6] get with Histamine H3 receptor (Rattus norvegicus)?
Response: -0.39

Prompt: Write down the reported log10(Ki) of C(=C/CCC1CCCCC1)/CCc1c[nH]cn1 [Compound 2] , test system: Histamine H3 receptor (Rattus norvegicus).
Response: 0.66

Prompt: Enter reported log10(Ki) observed with Histamine H3 receptor (Rattus norvegicus) for O=C(N[C@@H]1C[C@H]1c1c[nH]cn1)OCc1c(Cl)cccc1Cl [Compound 7]
Response: 0.53
